system: primary human hepatic stellate cells (donor 1); experiment: scaled lipid accumulation score (0 = DMSO-like, 1 = nortriptyline-like); higher = stronger HSC inactivation (lipid re-accumulation), active = hit call of the paper; conditions: library stock concentration: 10 mM; 48 h
Structures can show the parent of a compound that is named as a salt. The campaign covered roughly 5,800 compounds. About 620 (11%) showed activity.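 Rule for the calls: active = score above a cut-off or among the top three wells of a plate; in these data no inactive exceeds 0.85.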 The full list was thinned out, with actives kept by preference.
Possible outcomes: TRUE for active, FALSE for inactive

molecule="Cl.O[C@H](CNC[C@@H](O)[C@H]1CCc2cc(F)ccc2O1)[C@@H]1CCc2cc(F)ccc2O1 [Nebivolol hydrochloride]" group=TRUE
molecule=C[C@H](NC(=O)CCc1nc2ccccc2c(=O)[nH]1)c1ccccc1 group=FALSE
molecule=CN1CC[C@@H](c2c(O)cc(O)c3c(=O)cc(-c4ccccc4Cl)oc23)[C@@H]1CO group=FALSE
molecule="O=[N+]([O-])c1ccccc1S(=O)(=O)NCC1CCC(CNCC2CCc3ccccc3C2)CC1 (stereo not drawn) [NTNCB hydrochloride]" group=FALSE
molecule=NC(=O)C1(N2CCCCC2)CCN(CCCC(=O)c2ccc(F)cc2)CC1 group=FALSE
molecule="O=C(CCCN1CCC(O)(c2ccc(Cl)cc2)CC1)c1ccc(F)cc1 [Haloperidol]" group=TRUE
molecule="CC1(C)S[C@@H]2[C@H](NC(=O)[C@H](NC(=O)N3CCN(S(C)(=O)=O)C3=O)c3ccccc3)C(=O)N2[C@H]1C(=O)O [Mezlocillin Sodium]" group=FALSE
molecule="O=C(CCCN1CCC(O)(c2ccc(Cl)cc2)CC1)c1ccc(F)cc1 [Haloperidol hydrochloride]" group=FALSE

----------
test system: primary human hepatic stellate cells (donor 1); assay: scaled lipid accumulation score (0 = DMSO-like, 1 = nortriptyline-like); higher = stronger HSC inactivation (lipid re-accumulation), active = hit call of the paper; conditions: library stock concentration: 1 mM; 48 h
The campaign covered roughly 5,800 compounds. About 620 (11%) showed activity. Many of the other results were omitted from the sample, so actives are more common in it than they were.
Observable: scaled lipid accumulation score

molecule=CC(C)OC(=O)CCC/C=C/C[C@@H]1[C@@H](/C=C/[C@H](O)CCc2ccccc2)[C@H](O)C[C@@H]1O target_desc="primary human hepatic stellate cells (donor 1)" value_reported="≤ 0 (inactive)"
molecule="CCCCC[C@@H](O)[C@H]1C(=O)O[C@H](C)[C@@H](O)/C=C/C=C/C=C/C=C/C=C(\\C)[C@@H](O)C[C@H](O)C[C@H](O)C[C@H](O)C[C@H](O)C[C@H](O)C[C@@H]1O [Filipin III]" target_desc="primary human hepatic stellate cells (donor 1)" value_reported="0.021 (inactive)"
molecule="CCCCC[C@@](C)(O)/C=C/[C@H]1[C@H](O)CC(=O)[C@@H]1C/C=C\\CCCC(=O)O [15(R)-15-methyl Prostaglandin E2]" target_desc="primary human hepatic stellate cells (donor 1)" value_reported="≤ 0 (inactive)"
molecule="CCCCC[C@H](O)/C=C/[C@@H]1[C@@H](C/C=C\\CCCC(=O)NCCO)[C@@H](O)C[C@H]1O [Prostaglandin F2.alpha. Ethanolamide]" target_desc="primary human hepatic stellate cells (donor 1)" value_reported="≤ 0 (inactive)"
molecule="C[C@@H]1C[C@H]2O[C@@H]2/C=C\\C=C\\C(=O)Cc2c(Cl)c(O)cc(O)c2C(=O)O1 [Radicicol]" target_desc="primary human hepatic stellate cells (donor 1)" value_reported="0.383 (inactive)"
molecule="CCCCCCCC(=O)CC[C@@H]1[C@@H](C/C=C\\CCCC(=O)O)[C@@H](O)C[C@H]1O [Unoprostone]" target_desc="primary human hepatic stellate cells (donor 1)" value_reported="≤ 0 (inactive)"
molecule="CCCCCCCCCSCCCCCCCC(=O)O [9-Thiastearic Acid]" target_desc="primary human hepatic stellate cells (donor 1)" value_reported="0.031 (inactive)"
molecule=c1ccc(C(OC2CCN(CCCc3nn[nH]n3)CC2)c2ccccc2)cc1 target_desc="primary human hepatic stellate cells (donor 1)" value_reported="≤ 0 (inactive)"
molecule="Nc1nc2c(nc(O)n2[C@@H]2O[C@H](CO)[C@@H](O)[C@H]2O)c(=O)[nH]1 [8-hydroxy Guanosine]" target_desc="primary human hepatic stellate cells (donor 1)" value_reported="≤ 0 (inactive)"
molecule="CCCCC[C@H](O)C/C=C1/C(=O)C[C@H](O)[C@@H]1C/C=C\\CCCC(=O)O [.DELTA.12-Prostaglandin D2]" target_desc="primary human hepatic stellate cells (donor 1)" value_reported="≤ 0 (inactive)"
molecule="CCCCCCCCCCCCCCCCOC[C@@H](O)COP(=O)(O)O [1-Hexadecyl Lysophosphatidic Acid]" target_desc="primary human hepatic stellate cells (donor 1)" value_reported="≤ 0 (inactive)"
molecule="CCCCCCCC/C=C\\CCCCCCCC(=O)OCC [Oleic Acid ethyl ester]" target_desc="primary human hepatic stellate cells (donor 1)" value_reported="0.015 (inactive)"
molecule="O=C(CN=C(c1ccccc1)c1ccccc1)OCc1ccccc1 [N-(diphenylmethylene) Glycine benzyl ester]" target_desc="primary human hepatic stellate cells (donor 1)" value_reported="0.004 (inactive)"
molecule="CC(C)[C@H](O)C(=O)O [(S)-(+)-2-hydroxy-3-Methylbutyric Acid]" target_desc="primary human hepatic stellate cells (donor 1)" value_reported="≤ 0 (inactive)"
molecule="CCCCCC#CCC#CCCCCCCCC(=O)O [9,12-Octadecadiynoic Acid]" target_desc="primary human hepatic stellate cells (donor 1)" value_reported="0.001 (inactive)"

----------
system: primary human hepatic stellate cells (donor 1); test: scaled lipid accumulation score (0 = DMSO-like, 1 = nortriptyline-like); higher = stronger HSC inactivation (lipid re-accumulation), active = hit call of the paper; details: library stock concentration: 400 uM; 48 h
About 620 (11%) of roughly 5,800 compounds showed activity.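 The calls were made as follows: active = score above a cut-off or among the top three wells of a plate; in these data no inactive exceeds 0.85.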 The sample holds actives, similar compounds and a random draw of the others, so the mix is not that of the screen.
Outcome codes: true (1) = active, false (0) = inactive

chemical_string=CC(C)CC(=O)Nc1n[nH]c2c1CN(C(=O)C1CCN(C)CC1)C2(C)C target_desc="primary human hepatic stellate cells (donor 1)" group="false (0)"
chemical_string=C=CC(=O)Nc1cc2c(Nc3ccc(F)c(Cl)c3)ncnc2cc1C#CC(C)(C)N1CCN(C)CC1 target_desc="primary human hepatic stellate cells (donor 1)" group="true (1)"
chemical_string=COc1cc2ncnc(Nc3ccc(F)c(Cl)c3)c2cc1OCCCN1CCOCC1 target_desc="primary human hepatic stellate cells (donor 1)" group="false (0)"
chemical_string=COc1ccc(-c2ccc3ncc4c(c3c2)n(-c2ccc(N3CCNCC3)c(C(F)(F)F)c2)c(=O)n4C)cn1.O=C(O)/C=C\C(=O)O target_desc="primary human hepatic stellate cells (donor 1)" group="true (1)"
chemical_string=O=C(CO)N1CCC(c2n[nH]c(-c3ccc(Cl)cc3)c2-c2ccncn2)CC1 target_desc="primary human hepatic stellate cells (donor 1)" group="false (0)"
chemical_string=O=c1cc(N2CCOCC2)oc2c1ccc1ccccc12 target_desc="primary human hepatic stellate cells (donor 1)" group="false (0)"
chemical_string=CN1CCN(c2ccc3nc(-c4c(N)c5c(F)cccc5[nH]c4=O)[nH]c3c2)CC1 target_desc="primary human hepatic stellate cells (donor 1)" group="true (1)"
chemical_string=CC(C)(O)c1cc2nc(-c3cnc(N)nc3)nc(N3CCOCC3)c2s1 target_desc="primary human hepatic stellate cells (donor 1)" group="false (0)"
chemical_string=Cc1c(CN2CCN(C(=O)[C@H](C)O)CC2)sc2c(N3CCOCC3)nc(-c3cnc(N)nc3)nc12 target_desc="primary human hepatic stellate cells (donor 1)" group="false (0)"

----------
In this section, each of the molecules is paired with its reported scaled lipid accumulation score.
tested on: primary human hepatic stellate cells (donor 1); experiment: scaled lipid accumulation score (0 = DMSO-like, 1 = nortriptyline-like); higher = stronger HSC inactivation (lipid re-accumulation), active = hit call of the paper; details: library stock concentration: 10 mM; 48 h
The campaign covered roughly 5,800 compounds. About 620 (11%) showed activity. What follows is part of a selection rich in actives, with near analogues and random picks from the rest.
Observable: scaled lipid accumulation score

chemical_string=COC(=O)/C=C/c1cccc(N(Cc2ccc(-c3ccc(N(C)C)cc3)cc2)C(=O)C2CCCCC2)c1 value_reported=0.006
chemical_string=Cn1cc(-c2[nH]c3cc(NC(=O)[C@H](N)C4CCCCC4)cc4c3c2C=NNC4=O)cn1 value_reported=0.077
chemical_string=COc1ccc(CCN(C)CCCOc2ccc(S(=O)(=O)c3c(C(C)C)c4ccccc4n3C)cc2)cc1OC value_reported=0.445
chemical_string=CC1(C)CC(=O)c2c(C(F)(F)F)nn(-c3ccc(C(N)=O)c(N[C@H]4CC[C@H](O)CC4)c3)c2C1 value_reported=0.742

----------
tested on: primary human hepatic stellate cells (donor 1); assay: scaled lipid accumulation score (0 = DMSO-like, 1 = nortriptyline-like); higher = stronger HSC inactivation (lipid re-accumulation), active = hit call of the paper; details: library stock concentration: 3.33 mM; 48 h
Structures can show the parent of a compound that is named as a salt. The whole screen tested about 5,800 compounds, of which about 620 (11%) showed activity. For the sample, actives were picked, then their nearest neighbours and some compounds at random.
Observable: scaled lipid accumulation score

compound="Cc1cc2c(C(=O)NCC(C)c3ccccc3)c(O)c(O)cc2c(O)c1-c1c(C)cc2c(C(=O)NCC(C)c3ccccc3)c(O)c(O)cc2c1O (centres undefined) [Sabutoclax]" observable="scaled lipid accumulation score" value_reported="0.768 (inactive)"
compound="CCC(C)C1OC2(CCC1C)CC1CC(CC=C(C)C(OC3CC(OC)C(OC4CC(OC)C(O)C(C)O4)C(C)O3)C(C)C=CC=C3COC4C(O)C(C)=CC(C(=O)O1)C34O)O2 (centres undefined) [Ivermectin]" observable="scaled lipid accumulation score" value_reported="0.007 (inactive)"
compound=C[C@H](NC(=O)CCc1nc2ccccc2c(=O)[nH]1)c1ccccc1 observable="scaled lipid accumulation score" value_reported="≤ -0.009 (inactive)"
compound=Cc1cccc(CC(=O)N2CCc3c2ccc(-c2cn(C)c4ncnc(N)c24)c3F)n1 observable="scaled lipid accumulation score" value_reported="≤ 0 (inactive)"
compound="N#CC(c1ccnc(NCCc2cccnc2)n1)c1nc2ccccc2s1 (centres undefined) [JNK Inhibitor V]" observable="scaled lipid accumulation score" value_reported="0.329 (inactive)"
compound=Cc1cc(N2CCOCC2)ccc1Nc1nc(NC2CCCCC2)c2[nH]cnc2n1 observable="scaled lipid accumulation score" value_reported="0.091 (inactive)"
compound="CNCCc1ccccn1 [Betahistine 2HCl]" observable="scaled lipid accumulation score" value_reported="≤ 0 (inactive)"
compound="CN1CCN2c3ccccc3Cc3ccccc3C2C1 (centres undefined) [Mianserin HCl]" observable="scaled lipid accumulation score" value_reported="0.172 (inactive)"
compound="CCC(CO)Nc1nc(NCc2ccccc2)c2ncn(C(C)C)c2n1 [Roscovitine, (S)-Isomer]" observable="scaled lipid accumulation score" value_reported="≤ 0 (inactive)"
compound="CN1CCN2c3ncccc3Cc3ccccc3C2C1 (centres undefined) [Mirtazapine]" observable="scaled lipid accumulation score" value_reported="≤ 0 (inactive)"
compound="COc1ccccc1OCC(O)CO (centres undefined) [Guaifenesin]" observable="scaled lipid accumulation score" value_reported="≤ 0 (inactive)"
compound="CC12CC3CC(C)(C1)CC(N)(C3)C2 [Memantine HCl]" observable="scaled lipid accumulation score" value_reported="0.012 (inactive)"
compound=Cc1cccc(-c2nn3c(c2-c2ccnc4ccc(C(N)=O)cc24)CCC3)n1 observable="scaled lipid accumulation score" value_reported="0.006 (inactive)"
compound="C[C@@H](N)C1CCC(C(=O)Nc2ccncc2)CC1 (some centres undefined)" observable="scaled lipid accumulation score" value_reported="≤ 0 (inactive)"
compound=COc1cc(C(=O)NC2CCN(C)CC2)ccc1Nc1ncc2c(n1)N(C1CCCC1)CC(F)(F)C(=O)N2C observable="scaled lipid accumulation score" value_reported="0.271 (inactive)"
compound=CC[C@@H]1C(=O)N(C)c2cnc(Nc3ccc(C(=O)NC4CCN(C)CC4)cc3OC)nc2N1C1CCCC1 observable="scaled lipid accumulation score" value_reported="0.569 (inactive)"
compound=CCOc1cc(N2CCC(O)CC2)ccc1Nc1ncc2c(n1)N(C)c1ccccc1C(=O)N2C observable="scaled lipid accumulation score" value_reported="≤ -0.009 (inactive)"
compound="CC(C)CCN1c2nc(Nc3cc(F)c(O)c(F)c3)ncc2N(C)C(=O)C1C (centres undefined)" observable="scaled lipid accumulation score" value_reported="≤ 0 (inactive)"
compound="COc1ccccc1OCC(O)COC(N)=O (centres undefined) [Methocarbamol]" observable="scaled lipid accumulation score" value_reported="≤ 0 (inactive)"
